# System name: PD-1/PD-L1 interaction (PD-1-Ig / PD-L1-His) (Homo sapiens (Human))
# Sequence (Q9NZQ7 other isoform, or with tags, fused parts or gaps): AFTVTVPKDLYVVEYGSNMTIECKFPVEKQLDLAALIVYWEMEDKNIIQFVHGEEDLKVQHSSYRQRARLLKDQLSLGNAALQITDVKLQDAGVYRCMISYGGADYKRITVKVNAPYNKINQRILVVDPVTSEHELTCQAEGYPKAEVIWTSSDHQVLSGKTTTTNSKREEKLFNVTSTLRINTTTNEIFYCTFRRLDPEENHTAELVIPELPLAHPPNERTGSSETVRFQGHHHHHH
# Assay overview: PD-1/PD-L1 Homogenous Time-Resolved Fluorescence (HTRF) binding assay
# Protocol conditions: PD-1/PD-L1 HTRF binding assay; value given as range class; read-out: Range or IC50
The compounds listed here are annotated with their IC50.

Form field: reported IC50 of CC(=O)NCCNCc1ccc(OCc2cccc(-c3ccccc3)c2C)cc1OCc1ccc([N+](=O)[O-])cc1
100 to 20000 nM

Fill in the blank: the reported IC50 of Cc1cc(CN[C@@H](CO)C(=O)O)c(OCc2cccnc2)cc1OCc1cccc(-c2ccc3c(c2)OCCO3)c1C is ____.
0.6 to 10 nM

So what's the measured IC50 for this one? Cc1c(COc2cc(OCc3cncc(C#N)c3)c(CN[C@@H](CCCCN(C)C)C(=O)O)cc2Cl)cccc1-c1ccc2c(c1)OCCO2
0.6 to 10 nM

What does the record list as IC50 for Cc1c(COc2cc(OCc3cccc(C#N)c3)c(CN[C@@H](CC(=O)O)C(=O)O)cc2Cl)cccc1-c1ccc2c(c1)OCCO2 ?
0.6 to 10 nM

What does the record list as IC50 for CCc1cc(CNCCNC(C)=O)c(OCc2cccc(C#N)c2)cc1OCc1cccc(-c2ccc3c(c2)OCCO3)c1C ?
0.6 to 10 nM

Please find the next compound below.
Which IC50 is reported for this compound? Cc1c(COc2cc(OCc3cccc(C#N)c3)c(CN[C@@H](Cc3cn(C)cn3)C(=O)O)cc2Cl)cccc1-c1ccc2c(c1)OCCO2
0.6 to 10 nM

----------
# System name: PD-1/PD-L1 interaction (PD-1-Ig / PD-L1-His) (Homo sapiens (Human))
# Assay overview: PD-1/PD-L1 Homogenous Time-Resolved Fluorescence (HTRF) binding assay
# Protocol conditions: PD-1/PD-L1 HTRF binding assay; value given as range class; read-out: Range or IC50
pIC50: −log10 of the molar value.
Readout type: pIC50

Below, 5 compounds whose answers are already recorded.
Can you share its pIC50? I mean this compound: CC(=O)NCCNCc1ccc(OCc2cccc(-c3ccccc3)c2C)cc1OCc1cc(F)cc(OC(F)(F)F)c1
4.70 to 7.00

What value of pIC50 has been reported for the following compound? Cc1c(COc2ccc(CNC[C@@H](O)CC(=O)O)c(OCc3cccc(C#N)c3)c2)cccc1-c1ccccc1
8.00 to 9.22

What value of pIC50 has been reported for the following compound? Cc1c(COc2cc(OCc3cncc(C#N)c3)c(CN3CCCC[C@H]3C(=O)NS(=O)(=O)C3CC3)cc2Cl)cccc1-c1ccc2c(c1)OCCO2
8.00 to 9.22

If you can, please state the reported pIC50 value of Cc1c(COc2cc(OCc3cncc(C#N)c3)c(CN3C[C@@H](O)CC[C@H]3C(=O)O)cc2Cl)cccc1-c1ccc2c(c1)OCCO2 .
8.00 to 9.22

Name the reported pIC50 value associated with the compound CC[C@@H](NCc1cc(Cl)c(OCc2cccc(-c3ccc4c(c3)OCCO4)c2C)cc1OCc1cccc(C#N)c1)C(=O)O
8.00 to 9.22

Please turn your attention to the following entry.
Give its pIC50 value. Item: Cc1c(COc2cc(OCc3cncc(C#N)c3)c(CN[C@@](C)(CO)C(=O)O)cc2Br)cccc1-c1ccc2c(c1)OCCO2
8.00 to 9.22

Source: patent US9850225B2
